Biological target: UniProtKB Q9P0L2
Test: Caliper, Mobility shift assay off-chip
Conditions: compound 0.1 µM
MEASURE NAME: inhibition (%)
Hi! Could you send only the number? It should be in %, unit omitted.

Task: Can you share its inhibition? I mean this molecule: `CN(c1ccc2ccc3ncc(-c4cnn(C)c4)cc3c(=O)c2c1)S(=O)(=O)NCc1ccccn1`
Output: 6.6

Task: Bench note: what inhibition did `Cn1cc(-c2cnc3ccc4ccc(CS(=O)(=O)CCc5ccccn5)cc4c(=O)c3c2)cn1` show?
Output: 1.2

Task: Need inhibition, item `O=c1c2cc(CS(=O)(=O)NCc3ccccn3)ccc2ccc2ncc(C3CCNCC3)cc12`
Output: -2.9

Task: Could you share which inhibition value was measured for `O=C(CCc1ccc2ccc3ncc(C4CCNCC4)cc3c(=O)c2c1)NCc1ccccn1` ?
Output: -5.4

Task: Any idea what its inhibition is? The molecule is `Cn1cc(-c2cnc3ccc4ccc(CS(N)(=O)=O)cc4c(=O)c3c2)cn1`
Output: 16.5

Task: So what does the record say about inhibition for Cn1cc(-c2cnc3ccc4ccc(CS(=O)(=O)NCC5CCCCN5)cc4c(=O)c3c2)cn1 (configuration not stated) ?
Output: -3.9

Task: Give its inhibition value. Item: `Cn1cc(-c2cnc3ccc4ccc(CS(=O)(=O)NC5CCCCC5)cc4c(=O)c3c2)cn1`
Output: 5.5

* * *

Biological target: PIM2 (human)
Test: Caliper, Mobility shift assay off-chip
Details: compound 0.1 µM
MEASURE NAME: inhibition (%)
Numbers only; they are read as %.

Solved cases (6 shown):
{"MOLECULE": "CN(c1ccc2ccc3ncc(-c4cnn(C)c4)cc3c(=O)c2c1)S(=O)(=O)NCc1ccccn1", "QUANTITATIVE RESULT": 1.2}
{"MOLECULE": "Cn1cc(-c2cnc3ccc4ccc(CS(=O)(=O)CCc5ccccn5)cc4c(=O)c3c2)cn1", "QUANTITATIVE RESULT": -2.1}
{"MOLECULE": "Cn1cc(-c2cnc3ccc4ccc(CS(=O)(=O)NCC5CCCCN5)cc4c(=O)c3c2)cn1 (configuration not stated)", "QUANTITATIVE RESULT": 25.2}
{"MOLECULE": "O=c1c2cc(CS(=O)(=O)NCc3ccccn3)ccc2ccc2ncc(C3CCNCC3)cc12", "QUANTITATIVE RESULT": 2.9}
{"MOLECULE": "Cn1cc(-c2cnc3ccc4ccc(CS(=O)(=O)NC5CCCCC5)cc4c(=O)c3c2)cn1", "QUANTITATIVE RESULT": 4.3}
{"MOLECULE": "Cn1cc(-c2cnc3ccc4ccc(CS(N)(=O)=O)cc4c(=O)c3c2)cn1", "QUANTITATIVE RESULT": 15.4}

Now consider a different molecule.
Task: Form: Entry = `O=C(CCc1ccc2ccc3ncc(C4CCNCC4)cc3c(=O)c2c1)NCc1ccccn1` | System = PIM2 (human) | inhibition = ____
Output: -0.1

* * *

inhibition values for the compounds below.
Target: MAPKAPK2 (human)
Experiment: Caliper, Mobility shift assay off-chip
Conditions: compound 1.0 µM
Numbers only here, please. The scale is %.

{"COMPOUND": "CN(c1ccc2ccc3ncc(-c4cnn(C)c4)cc3c(=O)c2c1)S(=O)(=O)NCc1ccccn1", "READOUT UNITS": "%", "inhibition": 2.9}
{"COMPOUND": "O=C(CCc1ccc2ccc3ncc(C4CCNCC4)cc3c(=O)c2c1)NCc1ccccn1", "READOUT UNITS": "%", "inhibition": 0.8}
{"COMPOUND": "Cn1cc(-c2cnc3ccc4ccc(CS(=O)(=O)CCc5ccccn5)cc4c(=O)c3c2)cn1", "READOUT UNITS": "%", "inhibition": -4.4}
{"COMPOUND": "Cn1cc(-c2cnc3ccc4ccc(CS(=O)(=O)NCC5CCCCN5)cc4c(=O)c3c2)cn1 (stereo not given)", "READOUT UNITS": "%", "inhibition": 1.3}

Continue with the compound presented below.
Task: Query: inhibition; subject: `Cn1cc(-c2cnc3ccc4ccc(CS(N)(=O)=O)cc4c(=O)c3c2)cn1`
Output: 8

* * *

Target: UniProt:P53778
Sequence (P53778 whole entry, looked up): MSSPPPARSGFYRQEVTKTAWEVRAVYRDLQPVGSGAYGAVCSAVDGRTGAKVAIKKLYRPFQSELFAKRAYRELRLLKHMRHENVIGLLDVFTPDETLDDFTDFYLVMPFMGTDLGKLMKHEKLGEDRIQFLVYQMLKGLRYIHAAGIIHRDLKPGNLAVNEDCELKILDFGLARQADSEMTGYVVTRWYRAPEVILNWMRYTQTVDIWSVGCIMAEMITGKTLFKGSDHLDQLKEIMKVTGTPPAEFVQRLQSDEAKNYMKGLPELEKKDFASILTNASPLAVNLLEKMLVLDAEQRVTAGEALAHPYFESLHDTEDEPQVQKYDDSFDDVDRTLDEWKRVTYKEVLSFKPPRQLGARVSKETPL
Assay: Caliper, Mobility shift assay off-chip
Conditions: compound 1.0 µM
Each entry below carries its reported inhibition.
Answer format: numeric, % implied, no suffix.

In the examples that follow, each entry is paired with its recorded inhibition.
{"MOLECULE": "Cn1cc(-c2cnc3ccc4ccc(CS(N)(=O)=O)cc4c(=O)c3c2)cn1", "READOUT UNITS": "%", "inhibition": 2.9}
{"MOLECULE": "Cn1cc(-c2cnc3ccc4ccc(CS(=O)(=O)CCc5ccccn5)cc4c(=O)c3c2)cn1", "READOUT UNITS": "%", "inhibition": 0.8}

Task: I'd like to know its inhibition. The molecule in question is `CN(c1ccc2ccc3ncc(-c4cnn(C)c4)cc3c(=O)c2c1)S(=O)(=O)NCc1ccccn1`
Output: 0.4

Task: Looking for the measured inhibition of `O=C(CCc1ccc2ccc3ncc(C4CCNCC4)cc3c(=O)c2c1)NCc1ccccn1` , can you help?
Output: 8.3

Task: Using the record for Cn1cc(-c2cnc3ccc4ccc(CS(=O)(=O)NCC5CCCCN5)cc4c(=O)c3c2)cn1 (stereo not given) , report its inhibition.
Output: -11.8

* * *

Biological target: FGFR3 (human) (UniProt P22607)
Sequence (P22607 whole entry, looked up): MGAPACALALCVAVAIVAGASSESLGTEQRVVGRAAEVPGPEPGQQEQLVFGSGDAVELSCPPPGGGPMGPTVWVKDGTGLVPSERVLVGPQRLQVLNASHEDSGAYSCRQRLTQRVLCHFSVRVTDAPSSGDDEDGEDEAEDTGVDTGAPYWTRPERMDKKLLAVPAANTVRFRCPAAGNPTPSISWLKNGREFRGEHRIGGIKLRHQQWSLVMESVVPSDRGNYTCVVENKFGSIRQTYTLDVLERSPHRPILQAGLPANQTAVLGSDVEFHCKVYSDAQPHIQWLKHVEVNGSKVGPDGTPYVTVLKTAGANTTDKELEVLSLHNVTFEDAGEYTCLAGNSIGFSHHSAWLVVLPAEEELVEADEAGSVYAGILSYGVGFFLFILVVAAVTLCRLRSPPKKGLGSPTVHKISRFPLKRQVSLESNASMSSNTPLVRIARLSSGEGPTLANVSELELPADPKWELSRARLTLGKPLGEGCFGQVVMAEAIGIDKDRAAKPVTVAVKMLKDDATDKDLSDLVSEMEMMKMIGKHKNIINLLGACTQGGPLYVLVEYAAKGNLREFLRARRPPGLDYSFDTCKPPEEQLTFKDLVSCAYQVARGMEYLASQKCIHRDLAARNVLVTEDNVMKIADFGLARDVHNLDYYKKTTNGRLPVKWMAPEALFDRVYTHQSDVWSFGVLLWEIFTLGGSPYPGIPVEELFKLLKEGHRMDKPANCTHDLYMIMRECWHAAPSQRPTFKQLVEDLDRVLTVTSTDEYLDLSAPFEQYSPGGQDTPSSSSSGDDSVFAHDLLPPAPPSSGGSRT
MEASURE NAME: IC50 (µM)
Respond with the bare value in µM.

Task: Record `Cn1cc(-c2cnc3ccc4ccc(CS(=O)(=O)NCc5ccccn5)cc4c(=O)c3c2)cn1` : what is its IC50 with FGFR3 (human) (UniProt P22607)?
Output: 1

* * *

Target: PRKCG (human) (UniProt P05129)
Assay: Caliper, Mobility shift assay off-chip
Conditions: compound 0.1 µM
MEASURE NAME: inhibition (%)
Write the number in % without appending the unit.

Below, each entry is followed by its recorded inhibition result.
{"COMPOUND": "CN(c1ccc2ccc3ncc(-c4cnn(C)c4)cc3c(=O)c2c1)S(=O)(=O)NCc1ccccn1", "inhibition, %": -8.6}
{"COMPOUND": "Cn1cc(-c2cnc3ccc4ccc(CS(=O)(=O)CCc5ccccn5)cc4c(=O)c3c2)cn1", "inhibition, %": -2}
{"COMPOUND": "O=c1c2cc(CS(=O)(=O)NCc3ccccn3)ccc2ccc2ncc(C3CCNCC3)cc12", "inhibition, %": 1.8}
{"COMPOUND": "Cn1cc(-c2cnc3ccc4ccc(CS(=O)(=O)NC5CCCCC5)cc4c(=O)c3c2)cn1", "inhibition, %": 2.1}
{"COMPOUND": "Cn1cc(-c2cnc3ccc4ccc(CS(=O)(=O)NCC5CCCCN5)cc4c(=O)c3c2)cn1 (configuration not stated)", "inhibition, %": 6.2}
{"COMPOUND": "O=C(CCc1ccc2ccc3ncc(C4CCNCC4)cc3c(=O)c2c1)NCc1ccccn1", "inhibition, %": 10.9}

Could you now consider this next compound?
Task: Any idea what its inhibition is? The compound is `Cn1cc(-c2cnc3ccc4ccc(CS(N)(=O)=O)cc4c(=O)c3c2)cn1`
Output: -1.4

* * *

Biological target: PRKCB1 (human) (UniProt P05771)
Sequence (P05771 whole entry, looked up): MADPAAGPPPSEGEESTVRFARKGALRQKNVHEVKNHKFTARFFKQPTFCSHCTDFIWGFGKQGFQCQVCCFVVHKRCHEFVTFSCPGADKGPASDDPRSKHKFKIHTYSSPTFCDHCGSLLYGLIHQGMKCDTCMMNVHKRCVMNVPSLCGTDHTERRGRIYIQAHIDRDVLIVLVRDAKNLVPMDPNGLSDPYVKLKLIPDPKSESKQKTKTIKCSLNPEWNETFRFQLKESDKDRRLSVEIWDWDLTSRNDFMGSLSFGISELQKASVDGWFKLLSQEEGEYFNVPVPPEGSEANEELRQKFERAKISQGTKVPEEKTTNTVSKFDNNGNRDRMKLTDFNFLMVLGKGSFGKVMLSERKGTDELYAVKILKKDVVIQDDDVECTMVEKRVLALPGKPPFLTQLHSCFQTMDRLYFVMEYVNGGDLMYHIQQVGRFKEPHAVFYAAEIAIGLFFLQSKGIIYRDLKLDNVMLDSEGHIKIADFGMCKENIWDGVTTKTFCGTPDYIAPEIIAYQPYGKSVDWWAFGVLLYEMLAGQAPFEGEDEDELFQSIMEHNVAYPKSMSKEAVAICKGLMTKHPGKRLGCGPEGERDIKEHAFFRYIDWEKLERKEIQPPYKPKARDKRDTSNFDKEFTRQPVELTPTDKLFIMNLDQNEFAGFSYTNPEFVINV
Assay: Caliper, Mobility shift assay off-chip
Settings: compound 0.1 µM
MEASURE NAME: inhibition (%)
Write it as a number; the unit % goes unstated.

{"COMPOUND": "O=c1c2cc(CS(=O)(=O)NCc3ccccn3)ccc2ccc2ncc(C3CCNCC3)cc12", "inhibition, %": 6.7}

Task: Provide value of inhibition for this record tested with PRKCB1 (human) (UniProt P05771): `CN(c1ccc2ccc3ncc(-c4cnn(C)c4)cc3c(=O)c2c1)S(=O)(=O)NCc1ccccn1`
Output: -7.7

Task: For the record `O=C(CCc1ccc2ccc3ncc(C4CCNCC4)cc3c(=O)c2c1)NCc1ccccn1` , what value of inhibition is listed for PRKCB1 (human) (UniProt P05771)?
Output: 1.2

Task: Give the reported inhibition for `Cn1cc(-c2cnc3ccc4ccc(CS(=O)(=O)NC5CCCCC5)cc4c(=O)c3c2)cn1` (system: PRKCB1 (human) (UniProt P05771)).
Output: 1.4

Task: Give recorded inhibition with PRKCB1 (human) (UniProt P05771) for the following compound: `Cn1cc(-c2cnc3ccc4ccc(CS(N)(=O)=O)cc4c(=O)c3c2)cn1`
Output: -9.3

Task: Query for PRKCB1 (human) (UniProt P05771): what inhibition does the record show for Cn1cc(-c2cnc3ccc4ccc(CS(=O)(=O)NCC5CCCCN5)cc4c(=O)c3c2)cn1 (stereo unspecified) ?
Output: -20.8

* * *

Biological target: MARK1 (human) (UniProt Q9P0L2)
Sequence (Q9P0L2 whole entry, looked up): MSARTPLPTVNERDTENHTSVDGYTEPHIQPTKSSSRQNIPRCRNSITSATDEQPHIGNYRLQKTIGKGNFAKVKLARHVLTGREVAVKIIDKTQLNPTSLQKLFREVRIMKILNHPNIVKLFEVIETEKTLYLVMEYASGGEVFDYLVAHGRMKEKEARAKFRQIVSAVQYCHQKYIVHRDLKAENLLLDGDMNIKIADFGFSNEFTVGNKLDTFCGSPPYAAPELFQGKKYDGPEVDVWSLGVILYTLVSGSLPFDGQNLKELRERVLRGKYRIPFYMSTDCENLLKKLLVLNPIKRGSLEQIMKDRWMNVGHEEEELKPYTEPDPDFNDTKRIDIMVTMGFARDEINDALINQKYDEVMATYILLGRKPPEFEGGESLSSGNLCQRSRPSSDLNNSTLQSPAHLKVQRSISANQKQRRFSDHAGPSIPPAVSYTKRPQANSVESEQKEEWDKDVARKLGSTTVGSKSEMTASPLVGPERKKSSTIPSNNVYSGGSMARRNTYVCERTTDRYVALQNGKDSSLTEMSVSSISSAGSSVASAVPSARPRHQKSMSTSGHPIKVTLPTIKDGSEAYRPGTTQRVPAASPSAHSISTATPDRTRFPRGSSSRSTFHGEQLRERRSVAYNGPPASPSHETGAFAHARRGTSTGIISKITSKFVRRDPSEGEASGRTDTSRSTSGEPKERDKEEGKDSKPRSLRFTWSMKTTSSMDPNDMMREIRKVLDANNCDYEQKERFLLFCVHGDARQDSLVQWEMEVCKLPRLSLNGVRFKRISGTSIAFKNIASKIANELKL
Experiment: Caliper, Mobility shift assay off-chip
Details: compound 1.0 µM
Measured inhibition accompanies every entry in the list below.
Unit % implied. Number only.

Task: Using the record for `Cn1cc(-c2cnc3ccc4ccc(CS(=O)(=O)CCc5ccccn5)cc4c(=O)c3c2)cn1` , report its inhibition.
Output: -13.9

Task: I have this compound here, `Cn1cc(-c2cnc3ccc4ccc(CS(N)(=O)=O)cc4c(=O)c3c2)cn1` , and I need its recorded inhibition.
Output: 81.8

Task: Consider the compound shown here: Cn1cc(-c2cnc3ccc4ccc(CS(=O)(=O)NCC5CCCCN5)cc4c(=O)c3c2)cn1 (stereo not given) What is its recorded inhibition?
Output: 33.5

Task: Dear colleague, I am looking for the recorded inhibition of the following compound: `CN(c1ccc2ccc3ncc(-c4cnn(C)c4)cc3c(=O)c2c1)S(=O)(=O)NCc1ccccn1`
Output: 16.4

Task: Name the reported inhibition value associated with the compound `O=C(CCc1ccc2ccc3ncc(C4CCNCC4)cc3c(=O)c2c1)NCc1ccccn1`
Output: -1.3
